# tgt: Human FGFR2c (Homo sapiens, UniProt P21802)
# Sequence (P21802 22-821): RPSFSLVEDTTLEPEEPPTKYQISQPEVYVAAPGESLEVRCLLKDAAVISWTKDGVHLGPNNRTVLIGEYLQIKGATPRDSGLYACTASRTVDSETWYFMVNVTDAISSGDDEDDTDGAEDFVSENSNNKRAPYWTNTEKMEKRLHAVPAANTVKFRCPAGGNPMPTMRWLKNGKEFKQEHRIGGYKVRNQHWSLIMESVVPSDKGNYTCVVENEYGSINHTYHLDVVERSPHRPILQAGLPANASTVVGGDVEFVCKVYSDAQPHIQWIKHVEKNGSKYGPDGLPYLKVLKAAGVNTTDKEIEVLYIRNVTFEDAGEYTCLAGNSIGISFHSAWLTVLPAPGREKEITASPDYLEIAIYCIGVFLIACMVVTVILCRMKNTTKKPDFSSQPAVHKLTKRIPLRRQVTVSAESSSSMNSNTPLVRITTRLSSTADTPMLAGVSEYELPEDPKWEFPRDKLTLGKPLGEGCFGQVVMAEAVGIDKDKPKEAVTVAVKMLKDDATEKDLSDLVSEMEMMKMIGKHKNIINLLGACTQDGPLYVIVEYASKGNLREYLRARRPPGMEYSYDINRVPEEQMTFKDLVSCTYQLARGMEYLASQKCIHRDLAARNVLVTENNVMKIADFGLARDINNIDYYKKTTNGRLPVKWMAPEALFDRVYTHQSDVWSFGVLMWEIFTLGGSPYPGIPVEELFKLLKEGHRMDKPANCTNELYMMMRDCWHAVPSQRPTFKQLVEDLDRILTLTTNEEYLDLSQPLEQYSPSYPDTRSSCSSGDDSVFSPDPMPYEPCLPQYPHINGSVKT
# measurement.protocol: ELISA binding to recombinant human FGFR2c (Example 11)
# protocol.conditions: human FGFR2c
# Emax (A450) listing for each entry below
readout: Emax (A450)

• BGAm1371: parental murine anti-FGFR2b antibody (parental mouse clone); VH SEQ ID NO: 32, VL SEQ ID NO: 34 (antibody, V domains shown, Synthetic: VH AA; Synthetic: VL AA) VH: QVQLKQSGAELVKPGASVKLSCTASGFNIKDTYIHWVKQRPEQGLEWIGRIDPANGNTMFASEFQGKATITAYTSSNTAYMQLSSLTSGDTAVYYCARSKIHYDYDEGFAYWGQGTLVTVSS VL: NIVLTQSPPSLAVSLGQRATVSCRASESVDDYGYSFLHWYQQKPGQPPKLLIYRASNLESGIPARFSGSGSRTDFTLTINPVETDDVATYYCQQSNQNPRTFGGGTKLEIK = 0.204
• BGAh9179: humanized anti-FGFR2b IgG1 antibody from murine BGAm1371; VH SEQ ID NO: 21, VL SEQ ID NO: 22 (antibody, V domains shown, Synthetic: VH AA; Synthetic: VL AA) VH: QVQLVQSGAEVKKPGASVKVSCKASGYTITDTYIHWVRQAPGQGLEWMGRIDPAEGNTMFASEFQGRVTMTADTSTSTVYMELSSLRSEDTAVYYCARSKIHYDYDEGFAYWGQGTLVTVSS VL: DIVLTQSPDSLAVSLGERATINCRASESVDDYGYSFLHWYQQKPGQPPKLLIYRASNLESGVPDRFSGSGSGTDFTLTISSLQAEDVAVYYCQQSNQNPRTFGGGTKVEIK = 0.086
• BGAh9239: humanized anti-FGFR2b IgG1 antibody from murine BGAm1823; VH SEQ ID NO: 9, VL SEQ ID NO: 10 (antibody, V domains shown, Synthetic: VH AA; Synthetic: VL AA) VH: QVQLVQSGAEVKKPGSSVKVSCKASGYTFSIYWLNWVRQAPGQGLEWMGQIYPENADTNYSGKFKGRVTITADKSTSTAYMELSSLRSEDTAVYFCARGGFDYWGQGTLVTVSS VL: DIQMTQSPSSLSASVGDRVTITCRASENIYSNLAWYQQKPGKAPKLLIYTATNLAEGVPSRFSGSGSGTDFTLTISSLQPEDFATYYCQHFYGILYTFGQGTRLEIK = 0.130
• BGAm1823: parental murine anti-FGFR2b antibody; VH SEQ ID NO: 28, VL SEQ ID NO: 30 (antibody, V domains shown, Synthetic: VH AA; Synthetic: VL AA) VH: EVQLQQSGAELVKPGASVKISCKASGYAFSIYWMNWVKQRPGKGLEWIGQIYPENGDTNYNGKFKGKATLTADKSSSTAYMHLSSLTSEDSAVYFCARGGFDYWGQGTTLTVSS VL: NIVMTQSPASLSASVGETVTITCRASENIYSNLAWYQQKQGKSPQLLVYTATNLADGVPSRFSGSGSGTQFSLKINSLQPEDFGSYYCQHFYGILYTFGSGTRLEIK = 0.116
